Hey, just so you know, these numbers are from ChEMBL document CHEMBL4616591.

ASSAYED SYSTEM: UniProt P04058
Sequence (P04058 whole entry): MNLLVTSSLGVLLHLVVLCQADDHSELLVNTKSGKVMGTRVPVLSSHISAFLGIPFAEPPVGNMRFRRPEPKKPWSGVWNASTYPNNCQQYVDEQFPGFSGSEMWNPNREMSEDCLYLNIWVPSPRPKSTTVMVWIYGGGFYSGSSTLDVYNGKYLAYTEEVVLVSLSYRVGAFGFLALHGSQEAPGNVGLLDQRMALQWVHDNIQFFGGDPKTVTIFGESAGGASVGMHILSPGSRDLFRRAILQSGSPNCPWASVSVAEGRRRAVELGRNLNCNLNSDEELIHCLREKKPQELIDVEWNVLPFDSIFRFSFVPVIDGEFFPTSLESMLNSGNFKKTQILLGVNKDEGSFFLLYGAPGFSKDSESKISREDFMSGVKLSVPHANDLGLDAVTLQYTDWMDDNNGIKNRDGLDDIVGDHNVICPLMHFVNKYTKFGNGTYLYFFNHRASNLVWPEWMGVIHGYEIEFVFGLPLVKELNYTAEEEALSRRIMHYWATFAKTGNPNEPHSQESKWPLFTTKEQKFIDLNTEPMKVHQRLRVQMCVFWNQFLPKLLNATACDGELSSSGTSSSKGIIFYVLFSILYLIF
ASSAY TEXT: Inhibition of Torpedo californica AChE using acetylthiocholine chloride as substrate peincubated for 15 mins followed by substrate addition measured after 5 mins by Ellman's method
Set-up: species or system Tetronarce californica
MEASURED PARAMETER: pIC50
Worth noting: pIC50 values are minus log10 of concentrations stated in mol/L.

Entry C=CCSCC(NC(=O)CCCCCNc1c2c(nc3cc(Cl)ccc13)CCCC2)C(=O)Nc1nc2ccccc2s1 (configuration not stated) ; pIC50 = 6.55

Short answer for `C#CCSC[C@@H](N)C(=O)NCCCNc1c2c(nc3cc(Cl)ccc13)CCCC2` : pIC50 was 6.25

The measured pIC50 associated with `C=CCSC[C@@H](N)C(=O)NCCCNc1c2c(nc3ccccc13)CCCC2` reads 6.06

// sample C#CCSCC(NC(=O)CCCNc1c2c(nc3cc(Cl)ccc13)CCCC2)C(=O)Nc1nc2ccccc2s1 (configuration not stated) , its pIC50 was 6.60

Documented pIC50 of `C=CCSC[C@@H](N)C(=O)NCCCNc1c2c(nc3cc(Cl)ccc13)CCCC2` : 6.52

Sure, the documented pIC50 for `C#CCSC[C@@H](N)C(=O)NCCCCNc1c2c(nc3ccccc13)CCCC2` is 5.92
